Test: Compound stability in human liver microsomes
Assay type: in vitro ADME
Conditions: human, liver microsomes, pH 7.4, Human liver microsomes 0.5 mg protein/mL, compound 5 μM, NADPH 1.0 mM, 37° C.
API: label(entry) gives Fulfilled if the entry's half-life at 5 μM is strictly smaller than 2 h; on equality or larger values it gives Not fulfilled.

Query: Lab log: compare recorded half-life at 5 μM with 2 h; is it strictly lower for CN(c1nc(Nc2cnn(C)c2)ncc1Cl)C1CCC2(CC1)CCN(C(=O)CC#N)C2 (single isomer, unassigned) ?
Result: Fulfilled

Query: Hello, is half-life at 5 μM of the following compound strictly smaller than 2 h? Cc1cnc(Nc2cnn(C)c2)nc1NC1CCC2(CC1)CCN(C(=O)CC#N)C2 (stereo not shown)
Result: Not fulfilled

Query: Just wondering, is half-life at 5 μM of Cc1cc(Nc2ncc(Cl)c(NC3CCC4(CC3)CCN(C(=O)CC#N)CC4)n2)nn1C below 2 h?
Result: Fulfilled

Query: Answer whether the compound Cc1cnc(Nc2cnn(C)c2)nc1N(C)C1CCC2(CC1)CCN(C(=O)CC#N)CC2 has half-life at 5 μM strictly less than 2 h
Result: Not fulfilled

Query: Does this compound meet the criterion half-life at 5 μM < 2 h? N#CCC(=O)N1CCC2(CCC(Nc3nc(Nc4cnn(CCO)c4)ncc3Cl)CC2)CC1
Result: Not fulfilled

Query: I wonder whether Cn1cc(Nc2ncc(Cl)c(NC3CCC4(CC3)CCN(C(=O)CC#N)C4)n2)cn1 (single isomer, unassigned) [Ex. 14A] has half-life at 5 μM below 2 h. Can you tell?
Result: Not fulfilled

Query: Field: below-cutoff. Rule: recorded half-life at 5 μM strictly less than 2 h. Subject: Cn1cc(Nc2ncc(Cl)c(NC3CCC4(CC3)CCN(C(=O)C(F)(F)F)CC4)n2)cn1
Result: Fulfilled

====

Assay: Pharmacokinetics after intravenous and oral administration in rats
Format: in vivo
Conditions: oral bioavailability
measured-property: F
The reply must contain the numeric value and, after it, the unit.

Query: Looking for the measured F of Cn1cc(Nc2ncc(Cl)c(NC3CC4CN(C(=O)CC#N)CC4C3)n2)cn1 (stereo not drawn) [Ex. 12] , can you help?
Result: 39.2%

Query: Reported F for N#CCC(=O)N1CC2CC(Nc3nc(Nc4cnn(CC5CC5)c4)ncc3Cl)CC2C1 (stereo not drawn) [Ex. 46] : what is it?
Result: 26.0%

Query: So what's the measured F for this one? CC(=O)N1CCC2(CCC(Nc3nc(Nc4cnn(C)c4)ncc3Cl)CC2)CC1 [Ex. 28]
Result: 63.6%

Query: // lookup F for CN(c1nc(Nc2cnn(C)c2)ncc1Cl)C1CCC2(CC1)CCN(C(=O)CC#N)C2 (single isomer, unassigned) [Ex. 4A]
Result: 21.81%

Query: I have this compound here, COc1cnc(Nc2cc(C3CC3)[nH]n2)nc1NC1CC2CN(C(=O)CC#N)CC2C1 (stereo not drawn) [Ex. 52] , and I need its recorded F.
Result: 16.5%

Query: Please give the measured F for this compound: N#CCC(=O)N1CCC2(CCC(Nc3nc(Nc4cnn(CCO)c4)ncc3Cl)CC2)CC1 [Ex. 50]
Result: 17.3%

Query: I'd like to know its F. The compound in question is Cn1cc(Nc2ncc(Cl)c(NC3CC4CNCC4C3)n2)cn1 (stereo not drawn) [Ex. 11]
Result: 18.13%

Query: // query F value for entry Cc1nn(C)cc1Nc1ncc(Cl)c(NC2CC3CN(C(=O)CC#N)CC3C2)n1 (stereo not drawn) [Ex. 64]
Result: 48.1%

Query: Please report the recorded F for Cc1cnc(Nc2cnn(C)c2)nc1NC1CC2CN(S(C)(=O)=O)CC2C1 (stereo not drawn) [Ex. 62] .
Result: 29.6%
